Tested on: K98450-129-R-PDC complex spheroid growth, percent test/control;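 also: luminescence used as a proxy for viable cell amount; spheroids exposed to agents for seven days before the viability readout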
Assay: Anticancer human tumor K98450-129-R-PDC patient-derived colon adenocarcinoma cell line growth inhibition [RAS]; active = viability on the fitted dose curve at most 10% of control; inactive = the rest
Settings: second compound 0.003 µM; first compound 10 µM
Pick from active, inactive when you respond.

CC(C)NCC(C(=O)N1CCN(c2ncnc3c2C(C)CC3O)CC1)c1ccc(Cl)cc1 (configuration not stated) + CCn1c(-c2cc(N3CCN(C)CC3)cnc2C(C)OC)c2c3cc(ccc31)-c1csc(n1)CC(NC(=O)C1CC1C)C(=O)N1CCCC(N1)C(=O)OCC(C)(C)C2 | inactive

Lookup: # fetch the recorded call for NC1c2ccccc2OC12CCN(c1cnc3c(N4CCCc5ncccc54)n[nH]c3n1)CC2 (configuration not stated) + CCn1c(-c2cccnc2C(C)OC)c2c3cc(ccc31)N1CCOC(CC(NC(=O)C(C(C)C)N(C)C(=O)C3(F)CCN(C(=O)C#CC(C)(C)N(C)C)CC3)C(=O)N3CCCC(N3)C(=O)OCC(C)(C)C2)C1 here
Found: active

src = PubChem BioAssay AID2060891
